# measured_on: T1, biotinylated mesothelin ECD (Homo sapiens, UniProt Q13421)
# T1 construct: made in house; host or cells: HEK293F (transient)
# assay_comment: Surface plasmon resonance (Biacore T200) binding affinity of purified scFvs
# conditions: 1:1 Binding or Steady State Affinity fit
property_label: Kd (nM)
Answers are plain numbers, in nM.

Task item: What Kd value was documented for this molecule, M21: human anti-mesothelin scFv SEQ ID NO: 59; CDRs in Tables 4 and 5 (protein) scFv: QVQLVQSWAEVKKPGASVKVSCKASGYTFTSYYMHWVRQAPGQGLEWMGIINPSGGSTSYAQKFQGRVTMTRDTSTSTVYMELSNLRSEDTAVYYCARSPRVTTGYFDYWGQGTLVTVSSGGGGSGGGGSGGGGSGGGGSDIQLTQSPSTLSASVGDRVTITCRASQSISSWLAWYQQKPGKAPKLLIYKASSLESGVPSRFSGSGSGTEFTLTISSLQPDDFATYYCQQYSSYPLTFGGGTRLEIK ?
Reply: 110
